The measured values listed here are drawn from ChEMBL document CHEMBL1201862.

Assign GI50 to each entry below.
test system: SF-539; assay: NCI tumour cell line growth inhibition, 48 h
Calls of active or inactive are those of the source. No stated cut-off is given here; in the data, active = GI50 up to about 1.1 µM and inactive = higher.

Below are worked cases with known answers.
INSERT INTO results (molecule, reportedendpoint, experimentalvalue) VALUES
  ('CCC1CN(C(=O)c2ccccc2)C(Cc2c[nH]c3ccccc23)C(=O)C1CC(=O)OC (stereo not given)', 'GI50', '> 100 µM (inactive)'),
  ('O=C(C1OC1c1ccc([N+](=O)[O-])cc1)C12CC3CC(CC(C3)C1)C2 (stereo not given)', 'GI50', '15.3 µM (inactive)'),
  ('CCOP(=O)(OCC)/C(=C\n1ccc(=O)[nH]c1=S)C(=O)OC', 'GI50', '> 100 µM (inactive)'),
  ('COc1ccc(N/N=C/C2=CC(C)(C)C(C#N)(C#N)C(O)=C2C#N)cc1', 'GI50', '26.1 µM (inactive)');

--- query ---
input: Report value: GI50, system: SF-539, molecule: CC(C)(C)OC(=O)CN1CCNCCN(CC(=O)OC(C)(C)C)CCNCC1
output: > 100 µM (inactive)

----------
Assign GI50 to each entry below.
tested on: ACHN; experiment: NCI tumour cell line growth inhibition, 48 h
Calls of active or inactive are those of the source. Cut-off read from the data, not from the text of the source: active = GI50 up to about 1.1 µM and inactive = higher. Residues, ends and D or L forms follow the SMILES beside them. *: point of attachment. Boc = CC(C)(C)OC(=O)*; Bz = O=C(c1ccccc1)*

Below are worked cases with known answers.
INSERT INTO measurements (compound, reportedendpoint, experimentalvalue) VALUES
  ('c1ccc2c(c1)/C(=N\NC1=NCCN1)c1nc3ccccc3nc1-2', 'GI50', '3.21 µM (inactive)'),
  ('CCOC(=O)C1=C(O)C2C3CC4C2C(O)=C(C(=O)OCC)C2C1C3C42 (stereo not given)', 'GI50', '> 100 µM (inactive)'),
  ('N#Cc1cnc(-n2[nH]c3c(c2=O)CCCC3)[nH]c1=O', 'GI50', '47.2 µM (inactive)'),
  ('CN(C)c1ccc(C=c2c3ccccc3n3c2c2ccccc2[n+]3C)cc1', 'GI50', '0.867 µM (active)'),
  ('O=c1nc2n(c3nsnc13)CCO2', 'GI50', '> 100 µM (inactive)');

For every item below, please supply its GI50.
1. O=C(/C=N/c1ccccc1[S-])c1ccco1.O=C(/C=N/c1ccccc1[S-])c1ccco1.[Zn+2]
2. C[C@]12CCC(=O)C=C1CC[C@@H]1C2CC[C@]2(C)Nc3[nH]ncc3CC12 (stereo not given in full)
3. O=C(Nc1ccn(CCOC(=O)c2ccccc2)c(=O)n1)c1ccccc1
4. Cc1ccc(NC(=O)CC(=O)n2nc(C)c(/N=N/c3cccc(C)c3)c2C)cc1
5. CC(C)(C)c1cc(CC2C(=O)c3ccccc3C2=O)cc(C(C)(C)C)c1O
6. CC(NC(=O)C(Cc1ccc(OC(=O)c2ccccc2)cc1)NC(=O)OC(C)(C)C)C(=O)NC(Cc1ccccc1)C(=O)NCC(N)=O (stereo not given) (Boc-Y(Bz)AFG-NH2; configuration not given here)
7. C=CC[C@H]1O[Si](C(C)(C)C)(C(C)(C)C)[C@H](C)[C@H]1C
8. Cc1ccc([N+](=O)[O-])cc1S(=O)(=O)Nc1ccc(C2=NOC(c3ccccc3)C2)cc1 (stereo not given)

output:
1: 5.46 µM (inactive); 2: > 100 µM (inactive); 3: > 100 µM (inactive); 4: > 100 µM (inactive); 5: 9.51 µM (inactive); 6: 23 µM (inactive); 7: 39.4 µM (inactive); 8: 13.5 µM (inactive)

For every item below, please supply its GI50.
1. CCOC(=O)O/C(=C\c1ccc(OC)cc1)c1c(OC(=O)OCC)n(C(=O)OCC)c2ccccc12
2. CN1CCOC1(C)CO (stereo not given)
3. C=C1CC2CCCC12C=O (stereo not given)
4. CN(CCNC(=O)c1c[nH]c2c1Cc1ccccc1-2)CCNC(=O)c1c[nH]c2c1Cc1ccccc1-2

output:
29.1 µM (inactive)
> 100 µM (inactive)
> 10 µM (inactive)
43.6 µM (inactive)

For every item below, please supply its GI50.
1. O=C1c2scnc2-c2nccc3c2c1nc1ccccc13 [KUANONIAMINE A]
2. N#Cc1cccc(C2ON=C(c3ccc([N+](=O)[O-])cc3)N2C23CC4CC(CC(C4)C2)C3)c1 (stereo not given)

output:
0.955 µM (active)
> 100 µM (inactive)

For every item below, please supply its GI50.
1. COc1ccc(S(=O)(=O)N/N=C/CN2C(=O)c3ccccc3C2=O)cc1OC
2. CO[C@@H]1C[C@H]2[C@@H]3CC[C@H]([C@H](C)CO)[C@@]3(C)CC[C@@H]2[C@@]2(C)CC[C@H]3C[C@]312
3. C[C@@H]1CCC([C@@H](C)[C@H]2CC[C@H]3[C@@H]4CC[C@H]5C[C@@H](O)CC[C@]5(C)[C@H]4CC[C@]23C)=NC1

output:
1: > 100 µM (inactive); 2: 33.2 µM (inactive); 3: 14 µM (inactive)

----------
test system: SK-MEL-28; assay: NCI tumour cell line growth inhibition, 48 h
Calls of active or inactive are those of the source. No stated cut-off is given here; in the data, active = GI50 up to about 1.1 µM and inactive = higher. *1 amine or outer side, *2 acyl side, *3 side chain or, on linkers, in order; H or OH if unused. Where a SMILES comes first, the peptide text is derived from it. [ ]: non-standard residue; d: D form. The star is where a group is joined. ξ: configuration not given here. X26 = O=C([C@H]1CCC[C@H]1N[*:1])[*:2]; ξW = NC(Cc1c[nH]c2ccccc12)C(=O)O; ξF = NC(Cc1ccccc1)C(=O)O; Boc = CC(C)(C)OC(=O)*; ξK = NCCCCC(N)C(=O)O; ξT = CC(O)C(N)C(=O)O; tBu = CC(C)(C)*
reportedEndpoint: GI50

Below are worked cases with known answers.
INSERT INTO results (molecule, target, experimentalvalue) VALUES
  ('CCOC(=O)[C@@]12C(C)=CC(=O)O[C@]1(C)C[C@H]2C#N', 'SK-MEL-28', '> 100 µM (inactive)'),
  ('CC(C)/C=C1\CCC(CN2CCOCC2)C1=O (stereo not drawn)', 'SK-MEL-28', '17.7 µM (inactive)');

For every item below, please supply its GI50.
1. O=C(/C=C(\Nc1ccccc1O)c1ccccc1)C(=O)NC12CC3CC(CC(C3)C1)C2
2. Nc1nc(N)c(-c2ccccc2)c(C(=O)Nc2ccc(Cl)c(Cl)c2)n1
3. CCOC(=O)C1C=C2O[C@@H]3OC4(CCCCC4)O[C@@H]3C2[C@H]2C(=O)C=CC(=O)[C@@]12C(=O)OC (stereo partly drawn)
4. Cn1c(SCc2c[nH]c3ccccc23)nnc1-c1ccc(Cl)cc1Cl
5. CC(OC(C)(C)C)C1NC(=O)C(CCCCNC(=O)OC(C)(C)C)NC(=O)C(Cc2c[nH]c3ccccc23)NC(=O)C(Cc2ccccc2)NC(=O)[C@H]2CCC[C@H]2NC(=O)C(Cc2ccccc2)NC1=O (stereo partly drawn) (cyclo([X26][ξF][ξW][ξK](Boc)[ξT](tBu)[ξF]))

output:
["> 10 µM (inactive)", "> 100 µM (inactive)", "15.6 µM (inactive)", "36.2 µM (inactive)", "> 100 µM (inactive)"]

input: Report value: GI50, system: SK-MEL-28, molecule: O=C(Nc1ccccc1-c1n[nH]c(S)nc1=O)C(F)(F)F
output: > 100 µM (inactive)

----------
tested on: EKVX; experiment: NCI tumour cell line growth inhibition, 48 h
Active and inactive are the calls of the source. Cut-off read from the data, not from the text of the source: active = GI50 up to about 1.1 µM and inactive = higher.
Returns: one label drawn from True = active, False = inactive

INSERT INTO assay_data (compound, target, grouplabel) VALUES
  ('CC(=O)NNc1nc(C)c(C(=O)/C=C/c2cccc([N+](=O)[O-])c2)s1', 'EKVX', 'False'),
  ('ClCC[N+]12CC[N+](CCCl)(CC1)C2', 'EKVX', 'False'),
  ('Cc1nn(-c2nc3ccccc3s2)c2c1C(=O)c1ccccc1-2', 'EKVX', 'False'),
  ('CN(C)CCNc1ccc(CO)c2sc3ccc(O)cc3c(=O)c12', 'EKVX', 'False');

input: Each compound tested received a call. Report the one for COc1cc(NP(=O)(Oc2ccccc2)Oc2ccccc2)ccc1Nc1c2ccccc2nc2c1[nH]c1ccccc12 .
output: False

input: Each compound tested received a call. Report the one for C[C@]12CCC(=O)C=C1CC[C@@H]1C2CC[C@]2(C)Nc3[nH]ncc3CC12 (some centres undefined) .
output: False

input: Each compound tested received a call. Report the one for O=C1/C(=C/c2ccccc2)CN(C(=O)OCc2ccccc2)C/C1=C\c1ccccc1 .
output: False

----------
system: OVCAR-4; test: NCI tumour cell line growth inhibition, 48 h
Active and inactive are the calls of the source. No stated cut-off is given here; in the data, active = GI50 up to about 1.1 µM and inactive = higher.
reportedEndpoint: GI50

INSERT INTO results (compound, experimentalvalue) VALUES
  ('C=CC[C@H]1O[Si](C(C)(C)C)(C(C)(C)C)[C@H](C)[C@H]1C', '> 100 µM (inactive)'),
  ('CN1CCCC2[C@@H]3CCC4c5nonc5CC[C@]4(C)C3CC[C@@]21C (some centres undefined)', '> 100 µM (inactive)'),
  ('CN(CCCCCl)P(=O)(OCc1ccc([N+](=O)[O-])o1)OC[C@H]1O[C@@H](n2cc(F)c(=O)[nH]c2=O)C[C@@H]1O (some centres undefined)', '12.8 µM (inactive)');

--- query ---
input: Provide one value: measured GI50 of COC(=O)C1=NN2c3ccccc3CN([C@@H](C)c3ccccc3)C(=O)[C@H]2[C@@H]1C
output: 28.9 µM (inactive)
